# Test system: DLD-1 colon
# Test details: NCI tumour cell line growth inhibition, 48 h
Observed property: TGI (µM)

* NC(=S)N/N=C(\C(=O)Nc1ccc(Cl)c(Cl)c1)C1=NN(c2ccccc2)C(c2cccc([N+](=O)[O-])c2)CC1=O (centres undefined) | 47.5
* CC(=O)OC1C(O)C(C)OC(OC(=O)C2CCC3C(C2)OC2(CC(OC(=O)/C=C/c4ccccc4)C(C)CO2)C32CO2)C1OC1OC(C)C(O)C(O)C1O (centres undefined) | 5.69

---

A collection of compounds and their measured TGI
# Tested on: U251 CNS
# Test details: NCI tumour cell line growth inhibition, 48 h
Observed property: TGI

- CCOC(=O)/C=C(/C(=O)OCC)n1ccc(=O)[nH]c1=O: 27.3 µM
- O=[N+]([O-])c1ccc(Cl)cc1N/N=C/c1cccs1: > 100 µM
- COc1ccc(CCC2NCCc3cc(OC)c(OC)cc32)cc1 (stereo unspecified): > 100 µM
- COc1cccc2c(Nc3ccc(C(=O)NCCN(C)C)cc3)cc(-c3ccccc3)nc12: 38.3 µM
- CCOC(=O)O/N=C1/C(c2c(O)[nH]c3ccccc23)=Nc2ccccc21: > 100 µM
- S=C1CSc2c(cnc3ccccc23)N1: > 100 µM

---

A collection of molecules and their measured TGI
# System: TK-10 renal
# Test details: NCI tumour cell line growth inhibition, 48 h
Observed property: TGI

* COc1ccc(CCC2NCCc3cc(OC)c(OC)cc32)cc1 (centres undefined) | > 100 µM
* CC1=N/C(=C\c2cccc3ccccc23)C(=O)O1 | > 100 µM
* CC(C)=CCC/C(C)=C/CC/C(C)=C/CSc1ccc(Cl)cc1C(=O)O | 37.6 µM
* CCOC(=O)O/N=C1/C(c2c(O)[nH]c3ccccc23)=Nc2ccccc21 | 24 µM
* C=C1C(=O)O[C@H]2[C@H]1CC/C(COC(=O)C(=O)c1cn(C)c3ccc(OC)cc13)=C\CC[C@@]1(C)O[C@@H]21 | 13.2 µM
* COc1cc(C)cc(OC)c1/C=C/C(=O)O | > 100 µM
* CCOC(=O)CCC(NC(=O)c1ccc(NCc2ccc3nc(-c4ccccc4)c(Cl)nc3c2)c2ccccc12)C(=O)OCC (centres undefined) | > 100 µM
* COc1ccc(S(=O)(=O)N/N=C(\C)CN2C(=O)c3ccccc3C2=O)cc1 | > 100 µM
* CCOC(=O)C12C(=O)CCN1CCc1ccccc1C2C (centres undefined) | > 100 µM
* O=C1C=C(NCCc2cc(Br)c(O)c(Br)c2)C(=O)c2[nH]cnc21 | > 100 µM
* CC(C)(C)OC(=O)N1C/C=C\C(=O)C2(OCCO2)c2ccccc21 | 47.3 µM
* O=C1NC(=S)NC(=O)C1=Cc1ccc2ccccc2n1 | > 100 µM
* CC(=O)N1C(OCc2ccccc2)CCN1c1ccccc1 (centres undefined) | > 10 µM
* CC12CCC(C1)C(C)(C)C2OC(=O)c1ccccc1C(=O)O (centres undefined) | > 100 µM
* Cc1nc(N)nc(N)c1N1CCN(Cc2ccccc2)CC1 | > 100 µM
* CC12CCC(O)CC1CCC1C2CCC2(C)C(C3=CC(=O)OC3)CCC12 (centres undefined) | 66.4 µM
* CC(C)(C)c1nnc2n(c1=O)N=CC(c1ccc(Br)cc1)S2 (centres undefined) | > 100 µM
* CC(C)(C)c1cc(C2NC(=O)NC2=O)cc(C(C)(C)C)c1O (centres undefined) | 95.2 µM
* Clc1cccc(N=C/C=C/Nc2cccc(Cl)c2)c1 | > 100 µM

---

# System: CAKI-1 renal
# Test details: NCI tumour cell line growth inhibition, 48 h
Quick rule for you: TGI at 30 µM or higher means rule met, lower means rule not met.

- COC(=O)[C@]12CC[C@@H](C)[C@H](C)[C@@H]1C1=CC[C@@H]3[C@@]4(C)C=C(O)C(=O)C(C)=C4CC[C@@]3(C)[C@]1(C)CC2: rule met
- COc1cc(/C=C/C(=O)c2cc(OC)c(OC)c(OC)c2)cc(OC)c1OC: rule not met
- Cc1ccc(N(C(=O)CC(=O)N2N=C(c3ccccc3)C(N=Nc3ccc([N+](=O)[O-])cc3)C2=O)C(=O)c2ccc(Cl)cc2)cc1 (stereo not given): rule met
- O=C1/C(=C2\SCC(=O)N2c2ccccc2)SC(=S)N1c1ccccc1: rule met
- COC1=C(OC)C(=O)C(Cc2c(Cl)nc3n2CCS3)=C(C)C1=O: rule met
- COC1=CCC2=C(CCN(C(=O)C3CCC3)C2Cc2ccc(OC)c(O)c2)C1 (stereo not given): rule met
- CN(C)/C=N/S(=O)(=O)c1nn2c(C=O)c(-c3cc4ccccc4oc3=O)nc2s1: rule not met
- Cc1nc2sccn2c1C(=O)OCCOCCOCCOCCOC(=O)c1c(C)nc2sccn12: rule met
- CCCCC(=O)OC[n+]1ccc2c(C)c3[nH]c4ccc(OC)cc4c3c(C)c2c1: rule not met
- OC1(c2ccc(Cl)cc2)c2ccccc2C2=NCc3ccccc3CN21 (stereo not given): rule met
- N#Cc1nc(Nc2ccc([N+](=O)[O-])cc2)sc1N: rule met
- O=c1c(S(=O)(=O)Oc2ccccc2)coc2cc(F)ccc12: rule met
- CC(C)c1ccc(O)c(=O)cc1: rule met
- N#CI1OC(C(F)(F)F)(C(F)(F)F)c2ccccc21: rule not met
- C1=C[C@]2(CCC13OCCO3)COc1ccccc12: rule met

---

# System: HOP-92 NSCLC
# Test details: NCI tumour cell line growth inhibition, 48 h
A collection of compounds and their measured TGI
Observed property: TGI

* Cc1[nH]nc(C(=O)Nc2n[nH]c3ccccc23)c1[N+](=O)[O-] | > 100 µM
* Clc1ccc(-c2nn3c(C45CC6CC(CC(C6)C4)C5)nnc3s2)cc1 | > 100 µM
* O=C1CCC2CCOc3ccc(O)c1c32 (centres undefined) | > 100 µM
* CCOC(=O)C12C(=O)CCN1CCc1ccccc1C2C (centres undefined) | > 100 µM
* CC1(C)CC[C@]2(C(=O)O)CC[C@]3(C)[C@H](CC[C@@H]4[C@@]5(C)CCC(=O)C(C)(C)[C@@H]5CC[C@]43C)[C@H]2[C@H]1OC(=O)C(F)(F)F | 22.6 µM
* O=C(NC(CO)CO)c1ccc2cc(C(=O)N3CC(CCl)c4ccc([N+](=O)[O-])cc43)[nH]c2c1 (centres undefined) | > 100 µM
* COc1cccc(/C=N/n2c(Cc3ccc(Cl)cc3)n[nH]c2=O)c1 | 52.1 µM
* CC(C)[C@@H](CS(=O)(=O)C(C)C)N1C(=O)[C@@](C)(CC(=O)O)C[C@H](c2cccc(Cl)c2)[C@H]1c1ccc(Cl)cc1 | 36.3 µM
* COP1(=S)OCC2CCC[C@@H]2O1 (some centres undefined) | > 100 µM

---

# Test system: OVCAR-5 ovarian
# Test details: NCI tumour cell line growth inhibition, 48 h
Observed property: GI50

• Cc1[nH]nc(C(=O)Nc2n[nH]c3ccccc23)c1[N+](=O)[O-] = > 100 µM
• COC(=O)[C@]12CC[C@@H](C)[C@H](C)[C@@H]1C1=CC[C@@H]3[C@@]4(C)C=C(O)C(=O)C(C)=C4CC[C@@]3(C)[C@]1(C)CC2 = 17.8 µM
• CN1CCN(c2cc(Nc3cc(C4CC4)[nH]n3)nc(Nc3ccc(CC(=O)NCc4cccc(F)c4)cc3)n2)CC1 = 0.432 µM
• Cc1ccccc1NC(=O)c1sc2nc3c(cc2c1N)C(=O)CCC3 = 6.82 µM
• COC(=O)c1cc2c(cc1Cl)SC(N(N(C)C)S(=O)(=O)c1ccc(Cl)cc1)=NS2(=O)=O = 20.1 µM
• CCC(C)CC(CC)NCCN1CCN(C(CC)CC(C)CC)C1=S (configuration not stated) = 1.72 µM
• C#CC#CC#CC#CC#CC#CC#CC#CCC1OC[C@H](COC(=O)O[C@@H](C(=O)O[C@H]2C[C@@]3(O)[C@@H](OC(=O)c4ccccc4)[C@@H]4[C@]5(OC(C)=O)CO[C@@H]5C[C@H](O)[C@@]4(C)C(=O)[C@H](OC(C)=O)C(=C2C)C3(C)C)[C@@H](NC(=O)c2ccccc2)c2ccccc2)O1 (some centres not stated) = 0.554 µM

---

# Tested on: LOX IMVI melanoma
# Test details: NCI tumour cell line growth inhibition, 48 h
Peptide text beside a SMILES is read from it. * marks the point of attachment. OSu = O=C1CCC(=O)N1O*; OBn = c1ccc(CO*)cc1; Bn = c1ccc(C*)cc1
Observed property: TGI (µM)

- c1csc(-c2nnc(C34CC5CC(CC(C5)C3)C4)o2)c1: 47.1
- CC(C)CC(NC(=O)C(N)CCC(=O)OCc1ccccc1)C(=O)NC(COCc1ccccc1)C(=O)NC(Cc1ccccc1)C(=O)ON1C(=O)CCC1=O (stereo not drawn) (H-E(OBn)LS(Bn)F-OSu; configuration not given here): 50.7
- COc1ccc(-c2[nH]ncc2-c2cc(OC)c(OC)c(OC)c2)cc1: 44.4
- COC(=O)[C@]12CC[C@@H](C)[C@H](C)[C@@H]1C1=CC[C@@H]3[C@@]4(C)C=C(O)C(=O)C(C)=C4CC[C@@]3(C)[C@]1(C)CC2: 27.4
